All values here come from patent US20100260765A1.

# system.tested: KDR endogenously expressed on human umbilical vein endothelial cells (HUVEC) (human, UniProt P35968 20-1356); note: test concentration or dose not given here
# Sequence (P35968 20-1356): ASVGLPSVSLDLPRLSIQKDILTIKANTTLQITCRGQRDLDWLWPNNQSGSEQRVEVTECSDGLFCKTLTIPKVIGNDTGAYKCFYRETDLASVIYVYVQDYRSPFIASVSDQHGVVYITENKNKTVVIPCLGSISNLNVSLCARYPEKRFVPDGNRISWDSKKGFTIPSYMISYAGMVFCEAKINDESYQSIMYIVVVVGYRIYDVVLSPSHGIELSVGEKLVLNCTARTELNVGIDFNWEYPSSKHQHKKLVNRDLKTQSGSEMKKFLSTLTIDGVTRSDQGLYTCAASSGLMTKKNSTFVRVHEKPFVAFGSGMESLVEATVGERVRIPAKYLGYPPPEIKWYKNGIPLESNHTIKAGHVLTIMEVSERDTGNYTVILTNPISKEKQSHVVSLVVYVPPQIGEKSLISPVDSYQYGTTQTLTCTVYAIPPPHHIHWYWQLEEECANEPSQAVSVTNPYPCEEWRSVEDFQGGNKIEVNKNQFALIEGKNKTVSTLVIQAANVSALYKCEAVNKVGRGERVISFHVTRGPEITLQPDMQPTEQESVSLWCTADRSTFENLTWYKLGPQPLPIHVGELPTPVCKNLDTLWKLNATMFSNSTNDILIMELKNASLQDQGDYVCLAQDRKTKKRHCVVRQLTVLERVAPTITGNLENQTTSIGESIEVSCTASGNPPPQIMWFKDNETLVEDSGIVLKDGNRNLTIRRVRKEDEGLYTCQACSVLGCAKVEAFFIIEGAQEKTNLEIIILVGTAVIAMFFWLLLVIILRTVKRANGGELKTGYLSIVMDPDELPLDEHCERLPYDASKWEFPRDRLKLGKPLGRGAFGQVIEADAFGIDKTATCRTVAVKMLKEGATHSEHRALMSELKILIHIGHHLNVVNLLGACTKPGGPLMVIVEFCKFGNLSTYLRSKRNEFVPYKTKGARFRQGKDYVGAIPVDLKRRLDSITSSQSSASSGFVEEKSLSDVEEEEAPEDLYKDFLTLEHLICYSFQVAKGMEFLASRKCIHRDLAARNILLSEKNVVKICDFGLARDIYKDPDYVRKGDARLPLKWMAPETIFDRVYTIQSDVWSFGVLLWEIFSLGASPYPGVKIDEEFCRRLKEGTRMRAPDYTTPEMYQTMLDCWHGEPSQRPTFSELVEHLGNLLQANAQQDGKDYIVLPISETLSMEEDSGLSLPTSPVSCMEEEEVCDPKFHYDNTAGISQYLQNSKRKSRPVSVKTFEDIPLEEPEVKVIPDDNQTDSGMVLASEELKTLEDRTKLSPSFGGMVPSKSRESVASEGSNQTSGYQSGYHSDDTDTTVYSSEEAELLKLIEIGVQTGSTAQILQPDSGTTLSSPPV
# method.summary: cell-based or functional assay
VEGF-E-mediated Survival % Inhibition (n = 1) listing for selected binders.

21H9 (antibody, V domains shown, Fully human mAb from XenoMouse hybridoma, tested as hybridoma supernatant) VH: QVPLVESGGGVVQPGRSLRLSCAASGFTFSSYGMHWVRQAPGKGLEWVAVIWYDGSNKYYADSVQGRFTISRDNSKNTLYLQMNSLRAEDTAVYYCARGVTMVRGLIIARYYYGLDVWGQGTTVTVSS VL: DIVMTQTPLSSPVTFGQPASISCRSSQSLVHSDGNTYLSWLQQRPGQPPRLLIYKISNRFFGVPDRFSGSGAGTDFTLKISRVEAEDVGLYYCMQSTQFPLTFGGGTKVEIK : -3%

Query: # input binder: 30F6 (antibody, V domains shown, Fully human mAb from XenoMouse hybridoma, tested as hybridoma supernatant) VH: QVQLVESGGGVVQPGRSLRLSCAASGFTFSTYGMHWVRQAPGKGLEWVAVIWYDGSNKYYADSVKGRFTISRDNSKNTLYLQMNSLRAEDTAVYYCACSYWNDDYYYGMDVWGQGTTVTVSS VL: DIQMTQSPSSLSASVGDRVIITCRASQNISSYLIWYQQKPGKAPNLLIHTTSSLQRGVPSRFSGSGSGTDFTLTISSLQPEDFATYYCQQSYSAPLTFGGGTKVEIK ; wanted: its VEGF-E-mediated Survival % Inhibition (n = 1)
Reply: 31%

Query: Which VEGF-E-mediated Survival % Inhibition (n = 1) value is on record for 30D7 (antibody, V domains shown, Fully human mAb from XenoMouse hybridoma, tested as hybridoma supernatant) VH: QVPLVESGGGVVQPGRSLRLSCAASGFTFSSYGMHWVRQAPGKGLEWVAVIWYDGSNKYYADSVKGRFTISRDNSKNTLYLQMNSLRAEDTAVYYCARGVTMVRGVIIARYYYGLDVWGQGTTVTVSS VL: DIVMTQTPLSSPVTLGQPASISCRSSQSLVHSDGNTYLSWLQQRPGQPPRLLIYKISNRFFGVPDRFSGSGAGTDFTLKIGRVEAEDVGLYYCMQSTQFPLTFGGGTKVEIK ?
Reply: -27%

Query: What measured VEGF-E-mediated Survival % Inhibition (n = 1) goes with 1G6 (antibody, V domains shown, Fully human mAb from XenoMouse hybridoma, tested as hybridoma supernatant) VH: EVQLLESGGGLVQPGGSLRLSCAASGFTFSSYAMSWVRQAPGKGLEWVSAISGGGGNTYYADSVKGRFTISRDNSKNTLYLQMNSLRAEDTAVYYCSKVATDYWGQGTLVTVSS VL: QPVLTQSSSASASLGSSVKLTCTLSSGHSSYIIAWHQQQPGKAPRYLMKLEGSGSYNKGSGVPDRFSGSSSGADRYLTISNLQFEDEADYYCETWDSYTVVFGGGTKLTVL ?
Reply: -2%

Query: Which VEGF-E-mediated Survival % Inhibition (n = 1) is listed for 29H3 (antibody, V domains shown, Fully human mAb from XenoMouse hybridoma, tested as hybridoma supernatant) VH: QVQLVQSGAEVKKPGASVKVSCKASGYTFTSYDINWVRQATGQGLEWMGWMNPNSGKTGYAQKFQGRVTMTRNTSINTAYMELSSLRSEDTAVYYCARGGYSNLGWFDPWGQGTLVTVSS VL: DIQMTQSPSSVSASVGDRVTITCRASQGISSWLVWYHQKPGKAPKLLIYGASSLQSGVPSRFSGSGSGTDFTLTISSLQPEDFATYYCQQANNFPFTFGPGTKVDIK ?
Reply: -19%

Query: For the binder 24C9 (antibody, V domains shown, Fully human mAb from XenoMouse hybridoma, tested as hybridoma supernatant) VH: EVQLVESGGGLVKPGGSLRLSCAASGFTFSTYSMNWVRQAPGKGLEWVSFISGRSSYIYYADSVKGRFTISRDNAKNSLYLQMNSLRAEDTAVYYCSKDDWFEELWGQGTLVTVSS VL: DIQMTQSPSSLSASVGDRVTITCRASQGIRNDLGWYQQKPGKAPKRLIYATFSLQSGVPSRFSGSGSGTEFTLTISSLQPEDFATYYCLQHNRYPWTFGQGTKVEIK , what VEGF-E-mediated Survival % Inhibition (n = 1) is on record?
Reply: 72%

Query: Any idea what its VEGF-E-mediated Survival % Inhibition (n = 1) is? The binder is 31E11 (antibody, V domains shown, Fully human mAb from XenoMouse hybridoma, tested as hybridoma supernatant) VH: QVQLVESGGGLVKPGGSLRLSCAASGFTFSDYYMSWIRQAPGKGLEWVSYISISGSTIYYADSVKGRFTISRDNAKNSLYLQMNSLRAEDTAVYYCARDDFWSGYYFNWFDPWGQGTLVTVSS VL: DIQMTQSPSSLSASVGDRVTITCRANQTISTFLNWYQQNPGKAPKLLIYAASSLQSGVPSRFSGSGSGTDFTLTISSLQPEDFATYYCQQTYIIPLTFGGGTKVEIK
Reply: 56%
